test: Approximate solubility of crystal form A in different solvents (manual stepwise dilution); type: physicochemical; conditions: organic solvent or mixture, thermodynamic from solid; 2-Methyltetrahydrofuran, ambient temperature
experimental-endpoint: solubility

Retrieve solubility measured for CC1(c2ccc(=O)n(-c3ccsc3)c2)COC1 [crystal form A] and print it.
34 to 51 mg/mL

----------
assay: Approximate solubility of crystal form A in different solvents (manual stepwise dilution); assay type: physicochemical; conditions: organic solvent or mixture, thermodynamic from solid; Methanol, ambient temperature
experimental-endpoint: solubility

Retrieve solubility measured for CC1(c2ccc(=O)n(-c3ccsc3)c2)COC1 [crystal form A] and print it.
> 104 mg/mL

----------
assay: Approximate solubility of crystal form A in different solvents (manual stepwise dilution); format: physicochemical; conditions: organic solvent or mixture, thermodynamic from solid; Methyl isobutyl ketone, ambient temperature
experimental-endpoint: solubility

Give recorded solubility. CC1(c2ccc(=O)n(-c3ccsc3)c2)COC1 [crystal form A]
34 to 51 mg/mL

----------
experiment: Approximate solubility of crystal form A in different solvents (manual stepwise dilution); assay type: physicochemical; settings: organic solvent or mixture, thermodynamic from solid; Methyl ethyl ketone, ambient temperature
experimental-endpoint: solubility

Fill in solubility for record CC1(c2ccc(=O)n(-c3ccsc3)c2)COC1 [crystal form A]
52 to 104 mg/mL

----------
assay: Approximate solubility of crystal form A in different solvents (manual stepwise dilution); type: physicochemical; conditions: organic solvent or mixture, thermodynamic from solid; Toluene, ambient temperature
experimental-endpoint: solubility

Please supply the value of reported solubility for the item CC1(c2ccc(=O)n(-c3ccsc3)c2)COC1 [crystal form A]
35 to 52 mg/mL

----------
test: Approximate solubility of crystal form A in different solvents (manual stepwise dilution); format: physicochemical; conditions: aqueous with cosolvent or surfactant or cyclodextrin, thermodynamic from solid; Ethanol-water (3:1), ambient temperature
experimental-endpoint: solubility

Provide measured solubility value, entry: CC1(c2ccc(=O)n(-c3ccsc3)c2)COC1 [crystal form A]
> 104 mg/mL

----------
experiment: Approximate solubility of crystal form A in different solvents (manual stepwise dilution); type: physicochemical; details: aqueous with cosolvent or surfactant or cyclodextrin, thermodynamic from solid; Ethanol-water (1:1), ambient temperature
experimental-endpoint: solubility

// fetch solubility given entry CC1(c2ccc(=O)n(-c3ccsc3)c2)COC1 [crystal form A]
> 100 mg/mL

----------
assay: Approximate solubility of crystal form A in different solvents (manual stepwise dilution); assay type: physicochemical; conditions: aqueous with cosolvent or surfactant or cyclodextrin, thermodynamic from solid; Acetone-water (1:2), ambient temperature
experimental-endpoint: solubility

Please report the measured solubility for CC1(c2ccc(=O)n(-c3ccsc3)c2)COC1 [crystal form A]
52 to 103 mg/mL

----------
assay: Approximate solubility of crystal form A in different solvents (manual stepwise dilution); format: physicochemical; details: organic solvent or mixture, thermodynamic from solid; 1,4-dioxane, ambient temperature
experimental-endpoint: solubility

Please indicate solubility recorded for CC1(c2ccc(=O)n(-c3ccsc3)c2)COC1 [crystal form A]
> 102 mg/mL

----------
assay: Approximate solubility of crystal form A in different solvents (manual stepwise dilution); format: physicochemical; conditions: organic solvent or mixture, thermodynamic from solid; Cyclohexane, ambient temperature
experimental-endpoint: solubility

Return value of solubility for input CC1(c2ccc(=O)n(-c3ccsc3)c2)COC1 [crystal form A] , no commentary.
< 2000 µg/mL

----------
assay: Approximate solubility of crystal form A in different solvents (manual stepwise dilution); assay type: physicochemical; details: aqueous with cosolvent or surfactant or cyclodextrin, thermodynamic from solid; Acetonitrile-water (1:1), ambient temperature
experimental-endpoint: solubility

Note solubility for the compound shown: CC1(c2ccc(=O)n(-c3ccsc3)c2)COC1 [crystal form A]
> 100 mg/mL
